Origin of the recorded values: paper PMC5700166

- TARGET OR SYSTEM: GST-Aq-NF-kB (Amphimedon queenslandica, UniProt A9Y5G7 2-389)
- Sequence: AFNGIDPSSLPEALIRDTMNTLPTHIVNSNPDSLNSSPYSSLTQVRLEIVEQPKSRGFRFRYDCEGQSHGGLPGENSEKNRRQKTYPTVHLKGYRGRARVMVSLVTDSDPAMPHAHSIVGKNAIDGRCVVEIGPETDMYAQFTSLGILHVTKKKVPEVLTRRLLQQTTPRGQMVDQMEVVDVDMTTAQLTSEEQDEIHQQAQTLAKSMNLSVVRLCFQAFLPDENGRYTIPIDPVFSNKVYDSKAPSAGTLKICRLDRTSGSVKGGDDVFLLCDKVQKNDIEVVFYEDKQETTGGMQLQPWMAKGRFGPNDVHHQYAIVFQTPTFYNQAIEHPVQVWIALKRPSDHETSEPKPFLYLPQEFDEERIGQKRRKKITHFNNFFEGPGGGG
- PROTOCOL SUMMARY: protein-binding microarray (PBM); PBM: ~300 nM protein, 6 mM HEPES pH 7.8, 80 mM KCl, 0.5 mM EDTA, 0.5 mM EGTA, 6% glycerol, 35 ng/ul poly-dIdC, 1% milk, 1 h, room temperature; high values mean tight binding
- REPORTED CONDITIONS: dsDNA, one strand shown
REPORTED ENDPOINT: binding signal (z-score)
Entry rule: numbers only, all in z-score.

The recorded binding signal for `CCGATTAACATCAGGGAAGTCCATGATGTTAATCGGGTCTTGATTCGCTTGACGCTGCTG` is 4.62

Reported binding signal of `CCGATTAACATCAGGGAATGCCCTGATGTTAATCGGGTCTTGATTCGCTTGACGCTGCTG` : 7.91

# binding signal (sequence: `CCGATTAACATCAAGGGGGGTATTGATGTTAATCGGGTCTTGATTCGCTTGACGCTGCTG` ) is 5.2

Reported binding signal of `CCGATTAACATCAAATTTCCCCGTGATGTTAATCGGGTCTTGATTCGCTTGACGCTGCTG` : 7.38

For `CCGATTAACATCAGGAATAGCCCTGATGTTAATCGGGTCTTGATTCGCTTGACGCTGCTG` the sequence record lists binding signal as 1.9

So for `CCGATTAACATCAGGGGGAGGGATGATGTTAATCGGGTCTTGATTCGCTTGACGCTGCTG` , the logged binding signal turned out to be 4.21

// `CCGATTAACATCAGAGACCCCCCTGATGTTAATCGGGTCTTGATTCGCTTGACGCTGCTG` : binding signal value = 3.97

Entry `CCGATTAACATCAGGGAACAACCTGATGTTAATCGGGTCTTGATTCGCTTGACGCTGCTG` — recorded binding signal = 4.61

response.value for `CCGATTAACATCAAGTACTTTCCTGATGTTAATCGGGTCTTGATTCGCTTGACGCTGCTG` (field: binding signal) = 1.81

* * *

- TARGET OR SYSTEM: GST-Hu-p50 (Homo sapiens, UniProt P19838 7-356)
- Sequence (P19838 7-356): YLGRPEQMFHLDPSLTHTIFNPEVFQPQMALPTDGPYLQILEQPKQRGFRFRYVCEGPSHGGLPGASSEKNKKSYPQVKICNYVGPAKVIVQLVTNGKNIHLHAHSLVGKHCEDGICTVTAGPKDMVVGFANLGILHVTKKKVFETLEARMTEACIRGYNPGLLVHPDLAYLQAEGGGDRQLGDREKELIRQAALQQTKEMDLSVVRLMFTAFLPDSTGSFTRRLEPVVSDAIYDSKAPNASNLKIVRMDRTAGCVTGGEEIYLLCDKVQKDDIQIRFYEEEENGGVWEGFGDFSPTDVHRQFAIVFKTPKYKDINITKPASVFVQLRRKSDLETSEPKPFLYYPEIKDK
- PROTOCOL SUMMARY: protein-binding microarray (PBM); PBM: ~300 nM protein, 6 mM HEPES pH 7.8, 80 mM KCl, 0.5 mM EDTA, 0.5 mM EGTA, 6% glycerol, 35 ng/ul poly-dIdC, 1% milk, 1 h, room temperature; Ap Aiptasia and Nv Nematostella (sea anemones) / Co Capsaspora / Aq Amphimedon (sponge) / Dm Drosophila / Hu human; RHD is the Rel homology domain; high values mean tight binding
- REPORTED CONDITIONS: dsDNA, one strand shown
REPORTED ENDPOINT: binding signal (z-score)
Give the value, in units of z-score, as a plain number.

Lab note: `CCGATTAACATCAAAACATCCCCTGATGTTAATCGGGTCTTGATTCGCTTGACGCTGCTG` gave binding signal of 5.91

Input `CCGATTAACATCAAAAATCCCAGTGATGTTAATCGGGTCTTGATTCGCTTGACGCTGCTG` . Output binding signal: 3.5

GET /value?item= `CCGATTAACATCAAACTTTCCCCTGATGTTAATCGGGTCTTGATTCGCTTGACGCTGCTG` &field=binding signal returns 6.2

The reported value for `CCGATTAACATCAGATTTACCCCTGATGTTAATCGGGTCTTGATTCGCTTGACGCTGCTG` in terms of binding signal is 3.46

For record `CCGATTAACATCAACGATTCCCCTGATGTTAATCGGGTCTTGATTCGCTTGACGCTGCTG` the listed binding signal is 5.62
